Attribute: Kd
Molecular target: TYK2 (JH2domain-pseudokinase) (Homo sapiens, UniProt P29597)
Construct: TYK2 (JH2domain-pseudokinase)-tagged T7 phage strains were prepared in an E. coli host derived from the BL21 strain; made in house; host or cells: E. coli BL21-derived host (T7 phage) or HEK-293 cells
Sequence (P29597 589-875 limits assumed): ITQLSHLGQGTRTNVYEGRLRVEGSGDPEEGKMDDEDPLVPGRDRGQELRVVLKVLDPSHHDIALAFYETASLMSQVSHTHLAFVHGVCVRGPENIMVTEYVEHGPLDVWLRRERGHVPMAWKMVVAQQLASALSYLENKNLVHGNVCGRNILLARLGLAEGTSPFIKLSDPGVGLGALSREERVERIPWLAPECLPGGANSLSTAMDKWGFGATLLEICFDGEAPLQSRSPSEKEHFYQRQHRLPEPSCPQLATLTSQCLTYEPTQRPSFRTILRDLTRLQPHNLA
Assay: TYK2 JH2 domain binding assay (KINOMEscan)

Examples from the recorded data:
molecule="Cc1cc(Nc2cc(Nc3ccc(Cc4ccccc4)cc3N(C)S(C)(=O)=O)ncn2)nc(C)n1 [Example 109]" recorded_measurement="< 0.2 nM"
molecule="COc1cccc(Nc2cc(Nc3cc(C)nc(C)n3)ncn2)c1 [Example 5]" recorded_measurement="1 to 10 nM"
molecule="COc1c(Nc2cc(Nc3cc(C)nc(C)n3)ncn2)cccc1-c1ncn(CC2COC2)n1 [Example 51]" recorded_measurement="< 0.2 nM"
molecule="Cc1cc(Nc2cc(Nc3ncc(-c4c(C)nn(C)c4C)cc3N(C)S(C)(=O)=O)ncn2)nc(C)n1 [Example 88]" recorded_measurement="< 0.2 nM"
molecule="Cc1cc(Nc2cc(Nc3ccc(C4=CCOCC4)cc3N(C)S(C)(=O)=O)ncn2)nc(C)n1 [Example 95]" recorded_measurement="< 0.2 nM"

Param readout = Kd; param system = TYK2 (JH2domain-pseudokinase) (Homo sapiens, UniProt P29597); param query = COc1cc(C2CCOC2)ccc1Nc1cc(Nc2cc(C)nc(C)n2)ncn1 (centres unmarked) [Example 117] ; response: value
1 to 10 nM

Repeat for the following molecule: Cc1cc(Nc2cc(Nc3ncc(-c4ncnn4C)cc3N(C)S(C)(=O)=O)ncn2)nc(C)n1 [Example 130]
0.2 to 1 nM

Repeat for the following molecule: CN(c1ccccc1Nc1cc(Nc2ncn(C)n2)ncn1)S(C)(=O)=O [Example 13]
> 10 nM

Repeat for the following molecule: [2H]C([2H])([2H])N(c1cccnc1Nc1cc(Nc2cc(C)nc(C)n2)ncn1)S(C)(=O)=O [Example 121]
< 0.2 nM

Repeat for the following molecule: COc1cc(-c2nccn2C)ccc1Nc1cc(Nc2cc(C)nc(C)n2)ncn1 [Example 91]
1 to 10 nM

Repeat for the following molecule: Cc1cc(Nc2cc(Nc3ccc(C(=O)N(C)C)cc3N(C)S(C)(=O)=O)ncn2)nc(C)n1 [Example 77]
< 0.2 nM

Repeat for the following molecule: Cc1cc(Nc2cc(Nc3nc(C)c(-c4cnn(C)c4C)cc3N(C)S(C)(=O)=O)ncn2)ncn1 [Example 163]
< 0.2 nM

Repeat for the following molecule: Cc1cc(Nc2cc(Nc3ccc(-c4nc(C)nn4C)cc3N(C)S(C)(=O)=O)ncn2)nc(C)n1 [Example 99]
0.2 to 1 nM

Repeat for the following molecule: COc1cc(-c2ncn(C)n2)ccc1Nc1cc(Nc2cc(C)nc(C)n2)ncn1 [Example 85]
1 to 10 nM
